System: K4 kissing-loop RNA reporter
Assay: apparent KD of K4 kissing-loop reporter; higher = weaker reporter binding
Conditions: Eterna round: R107; input ligand: FMN 200 uM
Provide the recorded apparent KD of K4 kissing-loop reporter for the entries that follow.
One number for each entry, in nM.

MACROMOLECULE_SEQUENCE: AGGAGUGAUGUUCCUACAUACACGGUCCGACGAGGACCGGUACGGCCGCCACUCGCGUCCCAGUGAUGUUGGGAUUUGGCGUACG [Exclusion Tryptophan A GF 17]
SYSTEM: K4 kissing-loop RNA reporter
RESULT_UNIT: nM
apparent KD of K4 kissing-loop reporter: 162
//
MACROMOLECULE_SEQUENCE: AUUAAUUUCAGAGGAUAUCGUUAUUUUUUUUAUUUUAUUCAUUUAUGCAGUGAUGUUGCUAUUAUUCGAGAAGGCUGAUUUAUAA [JR_ExcFMNB_Sub005]
SYSTEM: K4 kissing-loop RNA reporter;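 further: bound reporter read as fluorescence of individual clusters on recovered sequencing chips by microscopy, with normalized cluster intensities fitted with a binding model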
RESULT_UNIT: nM
apparent KD of K4 kissing-loop reporter: 97.9

Shifting focus to the sequence that follows.
Can you share its apparent KD of K4 kissing-loop reporter? I mean this sequence: UGUCAUUGGUCGGCCGCCACUUCAAGGUCAAAGACCAAAGAGUGAUGUUCUAAGACGAAAGUCAGAAGGACCGGGACCGAUGACU [TrypBS 10 #SwitchBubble #K4Middle]
168
